# Tested on: PEPCK-c
# Experimental Protocol: PEPCK-c mRNA expression in HepG2 cells
# Format: cell-based, human
# Condition Details: HepG2 cells, Experiment 1, basal (no insulin), four hours; UTC = 100
# Procedure: Approximately 28 hours after transfection, the cells are subjected to serum starvation for a period of 12 to 16 hours, using serum-free growth medium. […] Following insulin treatment (forty-eight hours after transfection), total RNA is harvested from all samples, and the amount of total RNA from each sample is determined using a Ribogreen assay (Invitrogen Corporation, Carlsbad, Calif.). […]
In the oligonucleotide strings, read from the 5' end, every base follows the letter of its sugar. An asterisk marks phosphorothioate; unmarked linkages are phosphodiester. Other units and linkages are bracketed, terminal groups are in braces. A string of capitals states the bases alone. e = 2'-O-(2-methoxyethyl) (MOE); [5mC] = 5-methylcytosine
For each of the substances below, state its PEPCKc mRNA.
Kindly provide the number alone.

What does the record list as PEPCKc mRNA for 327959 (antisense e[5mC]*eA*eG*e[5mC]*e[5mC]*eG*e[5mC]*eT*eG*eT*e[5mC]*eA*e[5mC]*eA*e[5mC]*eG*e[5mC]*eA*e[5mC]*eA*eG) [compound 327959] ?
139

And 341801 (antisense CCUAUCUCCCCUCUGGACC; all 2'-MOE, all phosphorothioate, methylation of C and T or U not given here) [compound 341801] ?
73

Also need 327893 (antisense eA*eA*e[5mC]*e[5mC]*eA*e[5mC]*eA*e[5mC]*eA*eA*e[5mC]*e[5mC]*eT*eA*e[5mC]*eT*eA*e[5mC]*e[5mC]*eT*e[5mC]*eA) [compound 327893] , thanks.
81

Another substance: 327965 (antisense eA*eT*e[5mC]*eA*e[5mC]*eA*eT*eA*eG*eG*eA*eA*eT*eA*eA*eA*eA*eA*eG*e[5mC]*e[5mC]*eA*eT*eA) [compound 327965]
63

Would you mind doing 327958 (antisense e[5mC]*e[5mC]*eG*eG*e[5mC]*eT*eG*e[5mC]*eA*eA*e[5mC]*eA*e[5mC]*eA*eA*eG*eA*e[5mC]*eA*e[5mC]*eG*eA) [compound 327958] as well?
73

Check 341804 (antisense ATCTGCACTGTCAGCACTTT; all 2'-MOE, all phosphorothioate, methylation of C not given here) [compound 341804] too.
44

Please answer likewise for 327961 (antisense eG*eG*eG*eG*eT*eA*eT*eT*eT*eG*eA*e[5mC]*eA*eA*eA*e[5mC]*eT*eG*eA*e[5mC]*eA) [compound 327961]
98

Next substance: 327963 (antisense eA*eA*e[5mC]*e[5mC]*eT*eA*eT*e[5mC]*e[5mC]*eT*eG*eA*eA*eT*eT*eA*e[5mC]*eT*eT*eG*eA*eA) [compound 327963]
92

Same question, 327911 (antisense eG*e[5mC]*eT*eA*e[5mC]*e[5mC]*eT*eG*e[5mC]*eA*e[5mC]*eT*eG*eT*eA*eA*eG*e[5mC]*eA*e[5mC]*eT*eT*eT*eT) [compound 327911] this time
52

Moving on to the next substance: 327897 (antisense eA*e[5mC]*eA*eG*eG*e[5mC]*e[5mC]*eG*eG*eG*eA*e[5mC]*eA*eA*eG*eT*eG*e[5mC]*eA*eA*eT*eA) [compound 327897]
72

Now consider 327952 (antisense e[5mC]*eT*eA*e[5mC]*eG*e[5mC]*eG*eT*eA*eT*eT*e[5mC]*eT*eT*eA*eA*eG*e[5mC]*eA*eA*eT*eA) [compound 327952] and answer again.
70

Try 341807 (antisense CTGGGACTTTGTAGGCCAGTT; all 2'-MOE, all phosphorothioate, methylation of C not given here) [compound 341807] next.
97

Moving on to 327946 (antisense eA*eG*eG*e[5mC]*eG*eA*eA*eG*eG*eA*eT*eG*eA*e[5mC]*eA*eA*eA*eG*eG*eG*eA*eA) [compound 327946]
90

Would you mind doing 327964 (antisense e[5mC]*e[5mC]*eA*eA*eG*eT*eT*e[5mC]*eT*eG*eT*e[5mC]*eA*eT*eG*e[5mC]*eA*e[5mC]*eT*eG*eA) [compound 327964] as well?
74

Subsequent entry: 341806 (antisense GCCAATATTTCTGTGCTGCTA; all 2'-MOE, all phosphorothioate, methylation of C not given here) [compound 341806]
79

Moving on to the next substance: 327899 (antisense e[5mC]*eA*eG*eT*eG*eA*eA*eT*eT*e[5mC]*eT*eA*e[5mC]*e[5mC]*eA*eG*eT*eG*e[5mC]*e[5mC]*eA*eT*eA) [compound 327899]
42

Again, but for 341800 (antisense AAGCCCAAAAGGAGAAUUCUUUG; all 2'-MOE, all phosphorothioate, methylation of C and T or U not given here) [compound 341800]
71

Now this one: 327885 (antisense eA*e[5mC]*eT*eA*e[5mC]*e[5mC]*eT*eG*e[5mC]*eA*e[5mC]*eT*eG*eT*eA*eA*eG*e[5mC]*eA*e[5mC]*eT*eT*eT*eG) [compound 327885]
73

Then this substance: 327886 (antisense e[5mC]*eG*e[5mC]*eG*eT*eA*e[5mC]*e[5mC]*eA*eA*eA*eA*eG*eT*eA*eA*eT*eA*eA*eT*eG) [compound 327886]
61

Now consider 327887 (antisense eG*e[5mC]*eG*eA*e[5mC]*e[5mC]*eA*eT*eG*eG*e[5mC]*eT*eG*eT*eA*eG*eA*e[5mC]*eT*eG*eT*eT*eA) [compound 327887] .
83

Values from patent US8178506B2
